# Tested on: HIV-1 (IIIB)
# PROTOCOL_DESCRIPTION: Inhibition of HIV-1 (IIIB)-induced cytopathicity (giant cell formation) in CEM cells
# Assay type: cell-based
# EXPERIMENTAL_PARAMETERS: read-out: EC50 HIV-1 (concentration required to inhibit HIV-induced giant cell formation by 50%); HIV-1, CEM cell cultures
pEC50: −log10 of the molar value.
Please mark true if the recorded pEC50 is equal to or greater than 5, and false if it falls below.

INSERT INTO measurements (compound, label_value) VALUES
  ('CNC(=O)C1NC(=O)C2NC(=O)C(NC(=O)C3NC(=O)C(CC(N)=O)NC(=O)C(NC(=O)C(CC(C)C)N(C)C(=O)OC(C)(C)C)C(O)c4ccc(c(Cl)c4)Oc4cc3cc(c4O)Oc3ccc(cc3)C2O)c2ccc(O)c(c2)-c2c1cc(O)c(CN1CCN(Cc3ccc(-c4ccccc4)cc3)CC1)c2O (centres unmarked)', 'true'),
  ('NCCCCCCNC(=O)C1NC(=O)C2NC(=O)C(NC(=O)C3NC(=O)C4NC(=O)C(Cc5ccc(c(Cl)c5)Oc5cc3cc(c5O)Oc3ccc(cc3Cl)C2O)NC(=O)C(N)c2ccc(O)c(c2)Oc2cc(O)cc4c2)c2ccc(O)c(c2)-c2c(O)cc(O)cc21 (centres unmarked)', 'false'),
  ('CCCCc1ccc(CNCc2c(O)cc3c(c2O)-c2cc(ccc2O)C2NC(=O)C4NC(=O)C5NC(=O)C(Cc6ccc(c(Cl)c6)Oc6cc4cc(c6O)Oc4ccc(cc4Cl)C(O)C(NC2=O)C(=O)NC3C(=O)NC)NC(=O)C(NC(=O)OC(C)(C)C)c2ccc(O)c(c2)Oc2cc(O)cc5c2)cc1 (centres unmarked)', 'true'),
  ('CCCCCCCCCCNCc1c(O)cc2c(c1O)-c1cc(ccc1O)C1NC(=O)C3NC(=O)C4NC(=O)C(Cc5ccc(c(Cl)c5)Oc5cc3cc(c5O)Oc3ccc(cc3Cl)C(O)C(NC1=O)C(=O)NC2C(=O)NC)NC(=O)C(NC(=O)C(N)CCCCN)c1ccc(O)c(c1)Oc1cc(O)cc4c1 (centres unmarked)', 'true'),
  ('NCCCCCCCCCCNC(=O)C1NC(=O)C2NC(=O)C(NC(=O)C3NC(=O)C4NC(=O)C(Cc5ccc(c(Cl)c5)Oc5cc3cc(c5O)Oc3ccc(cc3Cl)C2O)NC(=O)C(N)c2ccc(O)c(c2)Oc2cc(O)cc4c2)c2ccc(O)c(c2)-c2c(O)cc(O)cc21 (centres unmarked)', 'true'),
  ('CCCCCCCCCC[N+](C)(C)CCCNCc1c(O)cc2c(c1O)-c1cc(ccc1O)C1NC(=O)C3NC(=O)C4NC(=O)C(Cc5ccc(c(Cl)c5)Oc5cc3cc(c5O)Oc3ccc(cc3Cl)C(O)C(NC1=O)C(=O)NC2C(=O)O)NC(=O)C(N)c1ccc(O)c(c1)Oc1cc(O)cc4c1 (centres unmarked)', 'true'),
  ('NC(=O)CC1NC(=O)C(N)C(O)c2ccc(c(Cl)c2)Oc2cc3cc(c2O)Oc2ccc(cc2)C(O)C2NC(=O)C(NC(=O)C3NC1=O)c1ccc(O)c(c1)-c1c(O)cc(O)cc1C(C(=O)NCc1ccc(F)cc1)NC2=O (centres unmarked)', 'false'),
  ('CCCCCCCCCCNC(=O)C1NC(=O)C2NC(=O)C(NC(=O)C3NC(=O)C4NC(=O)C(Cc5ccc(c(Cl)c5)Oc5cc3cc(c5O)Oc3ccc(cc3Cl)C2O)NC(=O)C(N)c2ccc(O)c(c2)Oc2cc(O)cc4c2)c2ccc(O)c(c2)-c2c1cc(O)c(CNCCCN(C)C)c2O (centres unmarked)', 'true'),
  ('NC1C(=O)NC2Cc3ccc(c(Cl)c3)Oc3cc4cc(c3O)Oc3ccc(cc3Cl)C(O)C3NC(=O)C(NC(=O)C4NC(=O)C(NC2=O)c2cc(O)cc(c2)Oc2cc1ccc2O)c1ccc(O)c(c1)-c1c(O)cc(O)cc1C(C(=O)NCC12CC4CC(CC(C4)C1)C2)NC3=O (centres unmarked)', 'true'),
  ('CCCCOc1ccc(CNC2C(Oc3c4cc5cc3Oc3ccc(cc3Cl)C(O)C3NC(=O)C(NC(=O)C5NC(=O)C5NC(=O)C(Cc6ccc(cc6)O4)NC(=O)C(N(C)Cc4ccc(OCCCC)cc4)c4ccc(O)c(c4)Oc4cc(O)c(Cl)c5c4)c4ccc(O)c(c4)-c4c(O)cc(O)cc4C(C(=O)NCCCN(C)C)NC3=O)OC(C(=O)NCCCN(C)C)C(O)C2O)cc1 (centres unmarked)', 'true'),
  ('COC(=O)C1NC(=O)C2NC(=O)C(NC(=O)C(NC(=O)OC(C)(C)C)c3cc(Oc4ccc(CC(NC(=O)OCc5ccccc5)C(=O)O)cc4Cl)c(O)c(c3)Oc3ccc(cc3Cl)C2O)c2ccc(O)c(c2)-c2c1cc(O)c(CNC1C3CC4CC(C3)CC1C4)c2O (centres unmarked)', 'false'),
  ('CCCCCCCCCC[N+](C)(C)CCCNCc1c(O)cc2c(c1O)-c1cc(ccc1O)C1NC(=O)C3NC(=O)C4NC(=O)C(Cc5ccc(c(Cl)c5)Oc5cc3cc(c5O)Oc3ccc(cc3Cl)C(O)C(NC1=O)C(=O)NC2C(=O)NCCC[N+](C)(C)CCCCCCCCCC)NC(=O)C(N)c1ccc(O)c(c1)Oc1cc(O)cc4c1 (centres unmarked)', 'true');
